target-system: Histone deacetylase 1 (Homo sapiens)
Sequence (Q13547 whole entry): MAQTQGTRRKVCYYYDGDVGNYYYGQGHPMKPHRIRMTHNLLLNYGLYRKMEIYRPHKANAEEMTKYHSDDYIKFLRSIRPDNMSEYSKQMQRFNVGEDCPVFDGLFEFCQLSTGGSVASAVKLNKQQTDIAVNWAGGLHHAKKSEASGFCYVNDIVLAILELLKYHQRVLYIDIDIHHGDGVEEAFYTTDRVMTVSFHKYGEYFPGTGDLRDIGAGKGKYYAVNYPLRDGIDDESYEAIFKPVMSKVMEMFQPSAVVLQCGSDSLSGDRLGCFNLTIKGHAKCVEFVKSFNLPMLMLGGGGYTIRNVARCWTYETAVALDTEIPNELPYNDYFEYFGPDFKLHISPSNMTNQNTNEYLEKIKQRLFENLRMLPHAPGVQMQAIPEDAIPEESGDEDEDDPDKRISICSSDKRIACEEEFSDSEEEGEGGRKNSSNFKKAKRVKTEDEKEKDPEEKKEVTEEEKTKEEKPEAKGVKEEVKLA
protocol: Inhibition of recombinant HDAC1 expressed in HEK293 cells
readout-type: IC50 (µM)

Here is how some compounds turned out for IC50.
In [3]: df
Out[3]:
                            smiles_notation  scale_unit  readout_value
0   CCSC(=S)SCC(=O)c1ccc(C(=O)Nc2ccccc2)cc1          µM           27.9
1        CCSC(=S)SCC(=O)c1ccc(CCNC(C)=O)cc1          µM          0.607
2  CCSC(=S)SCC(=O)c1ccc(S(=O)(=O)Nc2ccc(Cl)cc2)cc1          µM          0.589
3  CCSC(=S)SCC(=O)c1ccc(NS(=O)(=O)c2ccc(Cl)cc2)cc1          µM           2.49
4      CCSC(=S)SCC(=O)c1ccc(-c2ccc(N)cn2)s1          µM          0.831
5        COc1ccc(C(=O)CSC(=S)SCCNC(C)=O)cc1          µM           7.51
6  CCSC(=S)SCC(=O)c1ccc(CC(=O)NCc2ccc(OC)cc2)s1          µM          0.887
7  CCSC(=S)SCC(=O)c1cccc(NC(=O)c2cnc3ccccc3c2)c1          µM          0.592

(I) CCSC(=S)SCC(=O)c1ccc(S(=O)(=O)Nc2ccc(OC)cc2)cc1
(II) CCSC(=S)SCC(=O)c1ccc(C(=O)Nc2ccccc2)s1
Endpoint returns the identifier whose IC50 is numerically larger, either I or II . Give the chosen item's label as your response.
II

(1) CCSC(=S)SCC(=O)c1ccc(CC(=O)Nc2ccc(OC)cc2)s1
(2) CCSC(=S)SCC(=O)c1ccc(C(=O)N[C@@H](C)c2ccccc2)s1
(3) CCOC(=S)SCC(=O)c1ccc(OC)cc1
hey, can you rank those compounds up there by IC50? biggest number first please Give the labels in the order requested.
3, 2, 1

(I) CCSC(=S)SCC(=O)c1cccc(C(=O)NCc2ccccc2)c1
(II) CCSC(=S)SCC(=O)c1cccc(C(=O)Nc2ccccc2)c1
Lower value for measured IC50? Options: I , II Give the chosen item's label as your response.
I
(I: 0.672 µM, II: 1.67 µM)

Cited source: ChEMBL document CHEMBL1155020
